Target: α1 -adrenergic receptors (Rattus norvegicus)
Sequence (P15823 1-515): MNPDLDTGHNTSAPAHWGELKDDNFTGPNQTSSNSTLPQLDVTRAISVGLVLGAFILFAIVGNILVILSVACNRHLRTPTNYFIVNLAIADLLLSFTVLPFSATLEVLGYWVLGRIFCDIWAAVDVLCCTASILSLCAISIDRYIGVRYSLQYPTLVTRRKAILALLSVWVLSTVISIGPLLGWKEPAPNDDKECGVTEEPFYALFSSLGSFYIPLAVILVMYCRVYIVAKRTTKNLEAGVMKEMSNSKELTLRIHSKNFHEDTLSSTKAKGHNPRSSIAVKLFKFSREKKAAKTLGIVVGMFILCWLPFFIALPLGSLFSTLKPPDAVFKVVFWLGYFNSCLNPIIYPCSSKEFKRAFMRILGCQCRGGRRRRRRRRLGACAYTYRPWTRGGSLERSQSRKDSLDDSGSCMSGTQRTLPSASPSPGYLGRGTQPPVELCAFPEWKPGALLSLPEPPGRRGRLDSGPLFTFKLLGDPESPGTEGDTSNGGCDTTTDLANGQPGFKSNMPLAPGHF
Structures can show the parent of a compound that is named as a salt.
This section presents compounds with their documented Ki values.
Report as a plain number; the unit µM is understood.

>>> measured_number("NCC1CCc2c1ccc(O)c2O (stereo not drawn)")
8.62
>>> measured_number("CNCC1CCc2c1ccc(O)c2O (stereo not drawn) [Example 10, hydrobromide]")
1.69

Okay, next one:
Query Ki on α1 -adrenergic receptors (Rattus norvegicus) for CN(C)CC1CCc2c1ccc(O)c2O (stereo not drawn) [Example 6, hydrobromide]
6.9
